# COND: in chloroform, 273.15 K
PARAMETER MEASURED: solubility (mole fraction)
Write the number on its own, no unit after it.

Which solubility (mole fraction) is reported for this molecule? `O=[N+]([O-])c1cccc2cccc([N+](=O)[O-])c12`
0.00311

---

# COND: in acetonitrile, 283.15 K
PARAMETER MEASURED: solubility (mole fraction)
Please state the value as a number alone, without comment.

Entry under review: `O=[N+]([O-])c1cccc2cccc([N+](=O)[O-])c12` . Reported solubility (mole fraction)?
0.00528

---

# COND: in ethanol, 288.15 K
PARAMETER MEASURED: solubility (mole fraction)
Just the number.

Look up solubility (mole fraction): `O=[N+]([O-])c1cccc2cccc([N+](=O)[O-])c12`
0.000427

---

# COND: in ethyl acetate, 278.15 K
PARAMETER MEASURED: solubility (mole fraction)
Answer with a bare number; do not write a unit.

Requested field: solubility (mole fraction). Item: `O=[N+]([O-])c1cccc2cccc([N+](=O)[O-])c12`
0.00471

---

# COND: in chloroform, 275.65 K
PARAMETER MEASURED: solubility (mole fraction)
# output: bare number, no unit

Can you look up the measured solubility (mole fraction) of `O=[N+]([O-])c1cccc2cccc([N+](=O)[O-])c12` for me?
0.0035

---

# COND: in methanol, 283.15 K
PARAMETER MEASURED: solubility (mole fraction)
The answer should be written as a number, with no unit following it.

For `O=[N+]([O-])c1cccc2cccc([N+](=O)[O-])c12` , what is its reported solubility (mole fraction)?
0.000429

---

# COND: in methanol, 275.65 K
PARAMETER MEASURED: solubility (mole fraction)
A bare number is all that is needed in reply.

Endpoint output: solubility (mole fraction) of `O=[N+]([O-])c1cccc2cccc([N+](=O)[O-])c12` . Value?
0.000327

---

# COND: in acetonitrile, 285.65 K
PARAMETER MEASURED: solubility (mole fraction)
Lab note: jot down the number only; don't add units.

# input compound: `O=[N+]([O-])c1cccc2cccc([N+](=O)[O-])c12` ; wanted: its solubility (mole fraction)
0.00597

---

# COND: in n-butanol, 288.15 K
PARAMETER MEASURED: solubility (mole fraction)
The answer should be written as a number, with no unit following it.

Any idea what its solubility (mole fraction) is? The molecule is `O=[N+]([O-])c1cccc2cccc([N+](=O)[O-])c12`
0.000356

---

# COND: in acetone, 288.15 K
PARAMETER MEASURED: solubility (mole fraction)
Please give only the number in your answer, with no unit.

Can you look up the measured solubility (mole fraction) of `O=[N+]([O-])c1cccc2cccc([N+](=O)[O-])c12` for me?
0.0163

---

# COND: in methanol, 303.15 K
PARAMETER MEASURED: solubility (mole fraction)
Just the number, please, no unit attached.

Could you tell me which solubility (mole fraction) is on file for `O=[N+]([O-])c1cccc2cccc([N+](=O)[O-])c12` ?
0.000891

---

# COND: in toluene, 305.65 K
PARAMETER MEASURED: solubility (mole fraction)
Enter a number only.

Requested field: solubility (mole fraction). Item: `O=[N+]([O-])c1cccc2cccc([N+](=O)[O-])c12`
0.00427

---

# COND: in toluene, 291.15 K
PARAMETER MEASURED: solubility (mole fraction)

Consider the molecule shown here: `O=[N+]([O-])c1cccc2cccc([N+](=O)[O-])c12` What is its recorded solubility (mole fraction)?
0.00235
